These entries and their values trace back to patent US20240400659A1.

target: T1, Apolipoprotein E4 (human, UniProt P02649 19-317); assay: pH affinity ELISA, coated hApoE4, pH 6.0
T1 construct: also called ApoE4; hApoE4
T1 sequence (P02649 19-317 C130R limits assumed): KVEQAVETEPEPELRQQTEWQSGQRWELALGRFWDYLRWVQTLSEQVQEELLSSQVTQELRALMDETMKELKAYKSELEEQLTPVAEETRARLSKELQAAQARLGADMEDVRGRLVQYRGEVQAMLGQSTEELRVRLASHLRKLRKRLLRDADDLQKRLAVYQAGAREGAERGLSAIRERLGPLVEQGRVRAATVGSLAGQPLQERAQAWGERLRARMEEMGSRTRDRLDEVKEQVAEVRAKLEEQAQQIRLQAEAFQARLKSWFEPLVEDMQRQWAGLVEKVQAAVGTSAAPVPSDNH
Measurement Label: EC50 (µg/mL)

[
  {
    "Binder": "BAP191.01-CPE-HC-I051D (antibody, V domains shown, also called BAP191.01-CPE-HC-1051D) VH: QIQLVQSGPELKKPGETVKISCKASGYTFTTAGMQWVQKMPGKGFKWIGWDNTHSGEPKYAEDFKGRFAFSLETSASTAYLQISNLKNEDTATYFCARMGGYAMDYWGQGTSVTVSS VL: DIKLTQSPSSMYASLGERVTITCKASEDINSYLSWFQQKPGKSPKTLIYRANRLVDGVPSRFSGSGSGQDYSLTISSLEYEDMGIYYCLQYDEFPLTFGAGTKLELT",
    "Observed Result": 1.54
  },
  {
    "Binder": "BAP191-01-CPE-HC-M034D (antibody, V domains shown) VH: QIQLVQSGPELKKPGETVKISCKASGYTFTTAGDQWVQKMPGKGFKWIGWINTHSGEPKYAEDFKGRFAFSLETSASTAYLQISNLKNEDTATYFCARMGGYAMDYWGQGTSVTVSS VL: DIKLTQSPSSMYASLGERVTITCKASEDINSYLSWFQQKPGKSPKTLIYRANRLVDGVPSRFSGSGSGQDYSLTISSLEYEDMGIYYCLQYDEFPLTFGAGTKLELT",
    "Observed Result": 0.685
  },
  {
    "Binder": "BAP191.01-CPE-LC-Y091D (antibody, V domains shown) VH: QIQLVQSGPELKKPGETVKISCKASGYTFTTAGMQWVQKMPGKGFKWIGWINTHSGEPKYAEDFKGRFAFSLETSASTAYLQISNLKNEDTATYFCARMGGYAMDYWGQGTSVTVSS VL: DIKLTQSPSSMYASLGERVTITCKASEDINSYLSWFQQKPGKSPKTLIYRANRLVDGVPSRFSGSGSGQDYSLTISSLEYEDMGIYYCLQDDEFPLTFGAGTKLELT",
    "Observed Result": 0.084
  },
  {
    "Binder": "Anti-ApoE wildtype antibody BAP191.01-WT (antibody, V domains shown, also called benchmark; parent) VH: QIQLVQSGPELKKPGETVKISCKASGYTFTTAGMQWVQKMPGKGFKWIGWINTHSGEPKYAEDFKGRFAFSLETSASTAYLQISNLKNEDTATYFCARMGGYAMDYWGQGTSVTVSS VL: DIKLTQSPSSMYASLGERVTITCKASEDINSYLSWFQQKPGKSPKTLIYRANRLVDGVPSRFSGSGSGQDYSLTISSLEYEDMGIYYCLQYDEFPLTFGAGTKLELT",
    "Observed Result": 0.0797
  },
  {
    "Binder": "BAP191.01-CPE-HC-M104E (antibody, V domains shown) VH: QIQLVQSGPELKKPGETVKISCKASGYTFTTAGMQWVQKMPGKGFKWIGWINTHSGEPKYAEDFKGRFAFSLETSASTAYLQISNLKNEDTATYFCARMGGYAEDYWGQGTSVTVSS VL: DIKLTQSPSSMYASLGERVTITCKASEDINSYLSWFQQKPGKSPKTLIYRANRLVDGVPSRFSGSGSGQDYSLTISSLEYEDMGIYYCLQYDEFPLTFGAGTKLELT",
    "Observed Result": 4.2
  }
]
